Attribution: ChEMBL document CHEMBL3870356

Assay: Lipophilicity, logD of the compound at pH 7.4 by chromatography
Format: physicochemical
Run conditions: buffer
Measured endpoint: chromatographic logD

>  <Compound>
COCCN1CCC(N(CC23CC(c4ccc(C(F)(F)F)cc4)(C2)C3)C(=O)Cn2c(SCc3cccc(F)c3F)cc(=O)c3ccccc32)CC1

>  <Experimental result>
7.06

$$$$
>  <Compound>
COCCN1CCC(N(Cc2ccc(-c3ccc(C(F)(F)F)cc3)cc2)C(=O)Cn2c(SCc3cccc(F)c3F)cc(=O)c3ccccc32)CC1 [RILAPLADIB]

>  <Experimental result>
6.74

$$$$
>  <Compound>
CCN(CC)CCN(CC12CC(c3ccc(C(F)(F)F)cc3)(C1)C2)C(=O)Cn1c(SCc2ccc(F)cc2)nc(=O)c2c1CCC2

>  <Experimental result>
7

$$$$
